test system: P388 leukemia ip, CD2F1 mice, survival T/C; experiment: NCI In Vivo Anticancer Drug Screen. Data for tumor model P388 Leukemia (intraperitoneal) in CD2F1 (CDF1) mice; details: endpoint: median survival time; dose: 25.0 mg/kg/injection; schedule: Q01DX005 (ip); vehicle: saline; higher = longer survival
Inconclusive results and toxic doses are left out.
Each record here notes measured T/C.

As a guide, the following entries are already answered.
| molecule | T/C |
| --- | --- |
| [Cl][Pd][Cl].[NH-]C(CO)C(=O)O (stereo unspecified) | 102 % of control |
| CN(C)C1=NC(NC(C)(C)C)(N(C)C)OC(N(C)C)=N1 (stereo unspecified) | 100 % of control |
| c1ccc(CN2CSC3CCCCC32)cc1 (stereo unspecified) | 102 % of control |
| O=C1CN(C2OC(CO)C(O)C2O)C(=O)NC1=O (stereo unspecified) | 112 % of control |
| N#CC1(OC2OC(CO)C(O)C(O)C2O)C=CC(OS(=O)(=O)O)C1 (stereo unspecified) | 103 % of control |
| CCOC(=O)C(N)CSC(=O)NC (stereo unspecified) | 108 % of control |

Note to self: T/C recorded for "CCCCN(CCCC)CCCNc1c2c(nc3ccccc13)CCCC2" was 104 % of control

Note to self: T/C recorded for "CCC(C(=O)O)C(=O)O.[NH-]CC1CCCC[N-]1.[Pt+2]" was 161 % of control

Note to self: T/C recorded for "CC(C)(C)CC(C)(C)c1ccc(O)c(O)c1" was 100 % of control

Note to self: T/C recorded for "C[C@@H]1[C@H](c2ccccc2)OCN1C" was 101 % of control

Note to self: T/C recorded for OCC12CCCC(CO)(COC1)C2O (stereo unspecified) was 105 % of control

###

system: P388 leukemia ip, CD2F1 mice, survival T/C; test: NCI In Vivo Anticancer Drug Screen. Data for tumor model P388 Leukemia (intraperitoneal) in CD2F1 (CDF1) mice; conditions: endpoint: median survival time; dose: 50.0 mg/kg/injection; schedule: Q01DX009 (ip); vehicle: other
Toxic doses and inconclusive results are not listed. Rule for the calls: active = survival T/C of 150% or more; inactive = T/C below 125% in these data.
Result category, one only: active, inactive

| molecule | label_class |
| --- | --- |
| O=C(c1ccccc1)N1CC2CCC1CN2C(=O)c1ccccc1 | inactive |
| CCCCCCCCCCSCC(CO)NC(=O)/C=C/c1c(C)[nH]c(=O)[nH]c1=O (stereo unspecified) | inactive |
| CSCc1csc(N)n1 | inactive |
| CC(C)(C)OC(=O)NNCC(=O)OCc1ccccc1 | inactive |
| COc1cc(Br)c(C(=O)N2CCCc3ccccc32)cc1OC | inactive |
| COc1ccc(C(=O)/C(C)=C(/C)NCCC#N)c(OCc2ccccc2)c1OC | inactive |
| S=c1cc[nH]c2ccccc12 | inactive |
| COC(=O)[C@@H]1c2cc3c(c(O)c2[C@@H](OC)C[C@@]1(C)O)C(=O)c1c(O)cc2c(c1C3=O)OC1O[C@@]2(C)[C@H](O)[C@@H](N(C)C)[C@@H]1O | active |
| CCCCCCCCCCCCCCCCCSCc1ccc(Nc2ccccc2)cc1 | inactive |
| C=C(N=[N+]=[N-])c1ccccc1 | inactive |

Consider the additional molecule presented here.
Exam item: Please indicate how the test categorized Cc1[nH]c(=O)[nH]c(=O)c1/C=C/C(=O)NC(CO)CSC(C)C (stereo unspecified) .
Marked response: inactive
